Origin of the recorded values: FireProtDB (doi:10.1021/bi00437a058)

B1: Ribonuclease, P00648 (parent)
chain: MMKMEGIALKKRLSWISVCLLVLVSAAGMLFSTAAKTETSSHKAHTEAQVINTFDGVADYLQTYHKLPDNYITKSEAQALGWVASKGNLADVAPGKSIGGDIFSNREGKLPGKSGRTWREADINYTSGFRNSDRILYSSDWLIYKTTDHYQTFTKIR

variants of: B1; details: Bacillus amyloliquefaciens; pH 6.3; Thermal; Fluorescence; MES 50 mM; reversible: yes (>85%); structure 1BNI; whole UniProt chain shown
Would you mind labelling by change of melting temperature, mutant - wild type (higher = more stable)? At or over -10 °C is rule met, under is rule not met.

Past entries and their recorded results:
INSERT INTO assay_data (variant_designation, category) VALUES
  ('I135V', 'rule met'),
  ('L61A', 'rule not met');

Ask | In plain terms: is recorded change of melting temperature, mutant - wild type (higher = more stable) at least -10 °C for I135A ?
Reply | rule not met

Ask | And what about the variant I143A ?
Reply | rule met

Ask | Input I143V
Reply | rule met
